B1: C22orf15 (parent)
chain: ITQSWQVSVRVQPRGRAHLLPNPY

Variants of: B1
assay_summary: protein stability index of a GFP-peptide fusion (GPS, HEK-293T) (PSI 1-6); higher = more stable;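 note: lentivirally expressed fusions sorted by FACS into six bins by GFP to DsRed ratio, PSI derived from sequencing read proportions per bin multiplied by bin number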
condition_label: c terminus: a fixed tail appended
Binary classification by protein stability index, with 2 as an inclusive lower bound for yes; all other cases are no.

Q12E yes

// query Is protein stability index at least 2? Consider R10I
// result yes

// query Reported protein stability index at or above 2? P23R
// result no

// query Kindly determine if protein stability index recorded for N22D is above or exactly 2.
// result no

// query Does Q6P have a reported protein stability index of at least 2?
// result yes

// query Please indicate if the recorded protein stability index for A17C meets or exceeds 2.
// result yes
